# study.target: HIV Env, isolate Ce1176_A3 (HIV)
# test.protocol: cell-based or functional assay
Kindly state IC80 (µg/ml) with constrains for each of the entries shown.
Answer with a number only, understood to be in µg/mL.

Query: What does the data say about its IC80 (µg/ml) with constrains? Entry: ePGDM13 (antibody, V domains shown) VH: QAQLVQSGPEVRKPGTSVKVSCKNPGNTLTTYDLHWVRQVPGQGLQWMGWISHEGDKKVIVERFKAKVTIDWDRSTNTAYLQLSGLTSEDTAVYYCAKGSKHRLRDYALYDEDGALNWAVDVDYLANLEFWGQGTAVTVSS VL: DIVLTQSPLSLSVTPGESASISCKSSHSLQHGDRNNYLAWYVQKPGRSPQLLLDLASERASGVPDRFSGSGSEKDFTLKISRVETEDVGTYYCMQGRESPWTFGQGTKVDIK
Result: 0.124

Query: What does the data say about its IC80 (µg/ml) with constrains? Entry: ePGDM5 (antibody, V domains shown) VH: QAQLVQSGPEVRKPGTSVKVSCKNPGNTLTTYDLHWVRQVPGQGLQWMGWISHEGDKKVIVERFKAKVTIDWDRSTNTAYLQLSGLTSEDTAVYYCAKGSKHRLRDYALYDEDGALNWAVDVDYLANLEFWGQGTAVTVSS VL: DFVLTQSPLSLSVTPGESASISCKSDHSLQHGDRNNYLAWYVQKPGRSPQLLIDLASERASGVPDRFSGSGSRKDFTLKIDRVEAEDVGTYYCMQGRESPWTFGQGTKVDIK
Result: 0.088

Query: What does the data say about its IC80 (µg/ml) with constrains? Entry: PGDM1400 (antibody, V domains shown) VH: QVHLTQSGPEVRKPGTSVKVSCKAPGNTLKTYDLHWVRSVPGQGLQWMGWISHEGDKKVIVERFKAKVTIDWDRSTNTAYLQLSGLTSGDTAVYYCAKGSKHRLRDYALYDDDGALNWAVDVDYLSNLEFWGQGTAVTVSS VL: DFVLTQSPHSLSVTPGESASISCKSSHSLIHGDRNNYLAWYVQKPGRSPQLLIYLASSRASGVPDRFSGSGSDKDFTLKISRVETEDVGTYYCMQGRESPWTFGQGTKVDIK
Result: 2.1

Query: What does the data say about its IC80 (µg/ml) with constrains? Entry: ePGDM9 (antibody, V domains shown) VH: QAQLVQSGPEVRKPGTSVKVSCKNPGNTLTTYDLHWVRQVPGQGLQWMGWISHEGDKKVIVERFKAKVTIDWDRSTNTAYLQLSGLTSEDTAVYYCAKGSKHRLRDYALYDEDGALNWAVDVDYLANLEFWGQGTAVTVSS VL: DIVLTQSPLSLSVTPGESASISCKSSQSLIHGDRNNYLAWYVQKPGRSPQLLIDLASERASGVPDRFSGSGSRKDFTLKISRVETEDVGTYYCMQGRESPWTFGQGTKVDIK
Result: 0.089
